Quick list: GI50 per entry.
System: SK-OV-3
Method notes: NCI tumour cell line growth inhibition, 48 h
Calls of active or inactive are those of the source. Cut-off read from the data, not from the text of the source: active = GI50 up to about 1.1 µM and inactive = higher.

compound="CC1CCCP(=O)(c2ccccc2)CCC1 (stereo not drawn)" result="> 100 µM (inactive)"

Query: I am curious: what GI50 value has been reported for O/N=C1/CCCC/C1=C/C=C/c1ccccc1 ?
Result: 39 µM (inactive)

Query: What does the data say about its GI50? Entry: COC(=O)[C@]12CCC(C)[C@H](C)[C@H]1C1=CCC3[C@@]4(C)CC[C@H](OC(C)=O)C(C)(C)C4CC[C@@]3(C)C1(C)C(O)C2 (stereo partly drawn)
Result: > 100 µM (inactive)
